- test system: human SLC6A19 (Homo sapiens, UniProt Q695T7)
- Construct: expressed in transfected cells
- experimental details: Example B2: 13C6,15N-isoleucine uptake, RapidFire mass spectrometry, in CHO cells with doxycycline-inducible expression of human SLC6A19 and TMEM27
- Type: cell-based
- experimental setup: read-out: SLC6A19_RapidFire Uptake Assay IC50
test readout: log10 of IC50 (log10 of the value in nM)
Form field - Quantity: IC50; Unit: nM; Scale: log10

Here are 3 molecules together with their reported answers.
>  <molecule>
CC(=O)N1CCC[C@@H](N(C)C(=O)NCCc2cc(-c3cc4ccccc4[nH]3)c(Cl)cc2F)C1 [Compound 245]

>  <test system>
human SLC6A19 (Homo sapiens, UniProt Q695T7)

>  <log10 of IC50>
2.18

$$$$
>  <molecule>
CCn1ccc(C(=O)N2CCC[C@@H](N(C)C(=O)NCc3cc4cc(Cl)ccc4[nH]3)C2)n1 [Compound 240]

>  <test system>
human SLC6A19 (Homo sapiens, UniProt Q695T7)

>  <log10 of IC50>
2.20

$$$$
>  <molecule>
CN(C(=O)NCc1cc2cc(Cl)ccc2[nH]1)[C@@H]1CCCN(C(=O)c2ccncc2)C1 [Compound 34]

>  <test system>
human SLC6A19 (Homo sapiens, UniProt Q695T7)

>  <log10 of IC50>
3.15

$$$$

Problem: Query for human SLC6A19 (Homo sapiens, UniProt Q695T7): what log10 of IC50 does the record show for COCC1(C(=O)N2CCC[C@@H](N(C)C(=O)NCc3cc4cc(Cl)ccc4[nH]3)C2)CC1 [Compound 92] ?
Solution: 3.95

Problem: Now consider CC(=O)N1CCC[C@@H](N(C)C(=O)NCc2cc3cc(C)cc(CO)c3[nH]2)C1 [Compound 175] .
Solution: 4.32

Problem: Item: CC(=O)N1CCC[C@@H](N(C)C(=O)NCc2cc3ccc(OCc4cc(C)on4)cc3[nH]2)C1 [Compound 143]
Solution: 3.04

====

- test system: human SLC6A19 (Homo sapiens)
- Construct: expressed in transfected cells
- experimental details: Example B2: 13C6,15N-isoleucine uptake, RapidFire mass spectrometry, in CHO cells with doxycycline-inducible expression of human SLC6A19 and TMEM27
- Format: cell-based
- experimental setup: read-out: SLC6A19_RapidFire Uptake Assay IC50
IC50 values by entry
Show the value, then the unit it is measured in.

>  <mol smiles>
Cc1[nH]cnc1C(=O)N1CCC[C@@H](N(C)C(=O)NCc2cc3cc(Cl)ccc3[nH]2)C1

>  <IC50>
4050 nM

$$$$

Problem: Give the measured IC50 of CN(C(=O)NCc1cc2cc(Cl)ccc2[nH]1)[C@@H]1CCCN(C(=O)C2CC2)C1 .
Solution: 151 nM

Problem: Please give the result for CN(C(=O)NCc1cc2cc(Cl)ccc2[nH]1)[C@@H]1CCCN(C(=O)C2(O)CCCC2)C1 too.
Solution: 1340 nM

Problem: Param item: CN(C(=O)NCc1cc2cc(Cl)ccc2[nH]1)[C@@H]1CCCN(C(=O)Cc2ccno2)C1
Solution: 242 nM

====

- test system: human SLC6A19 (Homo sapiens, UniProt Q695T7)
- Construct: expressed in transfected cells
- Sequence (Q695T7 1-634): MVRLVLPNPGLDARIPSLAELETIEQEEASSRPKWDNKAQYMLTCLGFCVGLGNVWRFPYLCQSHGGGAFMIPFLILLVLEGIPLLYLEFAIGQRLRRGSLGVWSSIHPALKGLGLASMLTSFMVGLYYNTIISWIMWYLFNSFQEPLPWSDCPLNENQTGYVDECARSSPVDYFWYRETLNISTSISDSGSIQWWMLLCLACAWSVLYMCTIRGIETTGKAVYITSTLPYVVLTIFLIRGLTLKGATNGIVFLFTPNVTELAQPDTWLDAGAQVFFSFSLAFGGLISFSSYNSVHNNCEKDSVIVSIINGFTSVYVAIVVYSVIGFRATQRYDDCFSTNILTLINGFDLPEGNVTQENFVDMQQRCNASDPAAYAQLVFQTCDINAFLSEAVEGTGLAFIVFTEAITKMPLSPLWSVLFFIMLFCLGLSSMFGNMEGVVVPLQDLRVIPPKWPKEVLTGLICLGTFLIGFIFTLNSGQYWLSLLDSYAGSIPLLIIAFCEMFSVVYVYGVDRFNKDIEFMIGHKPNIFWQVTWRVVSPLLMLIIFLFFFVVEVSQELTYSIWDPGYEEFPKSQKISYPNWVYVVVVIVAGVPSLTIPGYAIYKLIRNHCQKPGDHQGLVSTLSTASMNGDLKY
- Sequence (Q9HBJ8 15-222 partner): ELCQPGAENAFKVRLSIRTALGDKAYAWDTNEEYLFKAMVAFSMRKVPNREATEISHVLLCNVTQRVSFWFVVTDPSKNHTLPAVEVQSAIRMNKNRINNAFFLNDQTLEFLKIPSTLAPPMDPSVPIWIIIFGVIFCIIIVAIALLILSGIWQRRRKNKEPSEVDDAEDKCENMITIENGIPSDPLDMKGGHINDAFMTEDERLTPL
- experimental details: Example B2: 13C6,15N-isoleucine uptake, RapidFire mass spectrometry, in CHO cells with doxycycline-inducible expression of human SLC6A19 and TMEM27
- Type: cell-based
- experimental setup: read-out: SLC6A19_RapidFire Uptake Assay IC50
test readout: pIC50
The quantity pIC50 is defined as the negative base-10 logarithm of the molar concentration.

Solved entries (count: 5):
>  <compound>
CN(C(=O)NCc1cc2cc(Cl)ccc2[nH]1)[C@@H]1CCCN(C(=O)CC(F)(F)F)C1

>  <observed measurement>
6.31

$$$$
>  <compound>
CN(C(=O)NCc1cc2cc(Cl)ccc2[nH]1)[C@@H]1CCCN(C(=O)Cc2cn[nH]c2)C1

>  <observed measurement>
6.24

$$$$
>  <compound>
CN(C(=O)NCc1cc2cc(Cl)ccc2[nH]1)[C@@H]1CCCN(C(=O)c2ccccc2)C1

>  <observed measurement>
6.44

$$$$
>  <compound>
CN(C(=O)NCc1cc2cc(Cl)ccc2[nH]1)[C@@H]1CCCN(C(=O)c2cccc(F)c2F)C1

>  <observed measurement>
5.91

$$$$
>  <compound>
CN(C(=O)NCc1cc2cc(Cl)ccc2[nH]1)[C@@H]1CCCN(C(=O)CC2CCCCO2)C1 (stereo partly shown)

>  <observed measurement>
5.75

$$$$

# next compound below
Problem: Quick one: pIC50 for CCC(NC(C)=O)C(=O)N1CCC[C@@H](N(C)C(=O)NCc2cc3cc(Cl)ccc3[nH]2)C1 (stereo partly shown) ?
Solution: 5.17

====

- test system: human SLC6A19 (Homo sapiens, UniProt Q695T7)
- Construct: expressed in transfected cells
- experimental details: Example B2: 13C6,15N-isoleucine uptake, RapidFire mass spectrometry, in CHO cells with doxycycline-inducible expression of human SLC6A19 and TMEM27
- Format: cell-based
- experimental setup: read-out: SLC6A19_RapidFire Uptake Assay IC50
Some molecules, each annotated with its measured pIC50.
// pIC50 is dimensionless: -log10 of concentration (M)

>  <molecule>
CN(C(=O)NCc1cc2cc(Cl)ccc2[nH]1)[C@@H]1CCCN(C(=O)Cc2ccn[nH]2)C1 [Compound 59]

>  <test system>
human SLC6A19 (Homo sapiens, UniProt Q695T7)

>  <pIC50>
6.28

$$$$

Problem: What value of pIC50 has been recorded for this entry: CN(C(=O)NCc1cc2cc(Cl)ccc2[nH]1)[C@@H]1CCCN(C(=O)c2ccccc2O)C1 [Compound 196]
Solution: 6.29

Problem: // next record CC(=O)N1CCC[C@@H](N(C)C(=O)NCc2cc3cc(Cl)c(C#N)cc3[nH]2)C1 [Compound 182]
Solution: 5.53

Problem: And CC(=O)N1CCC[C@@H](N(C)C(=O)NCc2cc3cc(Cl)cc(O)c3[nH]2)C1 [Compound 231] ?
Solution: 5.97

====

- test system: human SLC6A19 (Homo sapiens)
- Construct: expressed in transfected cells
- experimental details: Example B2: 13C6,15N-isoleucine uptake, RapidFire mass spectrometry, in CHO cells with doxycycline-inducible expression of human SLC6A19 and TMEM27
- Type: cell-based
- experimental setup: read-out: SLC6A19_RapidFire Uptake Assay IC50
Some molecules, each annotated with its measured IC50.
The figure you give is taken to be in nM; do not add the unit.

>  <molecule>
CCN(C(=O)NCc1cc2cc(Cl)ccc2[nH]1)[C@@H]1CCCN(C(=O)C2CCC2)C1 [Compound 232]

>  <units of measure>
nM

>  <observed measurement>
45.3

$$$$

Problem: Item under review: CC(=O)N1C[C@@H](C)C[C@@H](N(C)C(=O)NCc2cc3cc(Cl)ccc3[nH]2)C1 (racemic) [Compound 243] . Reported IC50?
Solution: 153

Problem: Same lookup for CN(C(=O)NCc1cc2cc(Cl)ccc2[nH]1)[C@@H]1CCCN(C(=O)c2ccnnc2)C1 [Compound 23] , please.
Solution: 5840

Problem: Here is the next molecule: CN(C(=O)NCc1cc2cc(Cl)ccc2[nH]1)[C@@H]1CCCN(C(=O)CC2CCC2)C1 [Compound 120]
Solution: 949

Problem: Consider next the molecule CC(=O)N1CCC[C@@H](N(CC(F)(F)F)C(=O)NCc2cc3cc(Cl)ccc3[nH]2)C1 [Compound 195] in the same way.
Solution: 62

Problem: Proceed to CN(C(=O)NCc1cc2cc(Cl)ccc2[nH]1)[C@@H]1CCCN(C(=O)[C@H]2CC[C@H](O)CC2)C1 [Compound 108]
Solution: 2280

Problem: Also, CCN(C(=O)NCc1cc2cc(F)ccc2[nH]1)[C@@H]1CCCN(C(C)=O)C1 [Compound 166] please.
Solution: 168
